Origin of measurements: patent US20240025905A1

TEST SUMMARY: Stability test (high temperature, high humidity and light tests)
Type: physicochemical
RECORDED CONDITIONS: Light (4500±500 lx, UV light≥0.7 w/m^2), 10 days
Consider the following compounds; for each one, report its Purity (%).

Example cases with answers are listed next.
{"COMPOUND": "CN(C)C=O.COC(=O)C1=C(CN2CCN3C(=O)N(c4ccc(CCC(=O)O)cc4F)C[C@@H]3C2)NC(c2nccs2)=N[C@H]1c1ccc(F)cc1Cl", "Purity (%)": "98.48%"}
{"COMPOUND": "COC(=O)C1=C(CN2CCN3C(=O)N(c4ccc(CCC(=O)O)cc4F)C[C@@H]3C2)N=C(c2nccs2)N[C@H]1c1ccc(F)cc1Cl.O=P(O)(O)O [Phosphate crystal form C of the compound having Formula (Ia)]", "Purity (%)": "99.30%"}
{"COMPOUND": "COC(=O)C1=C(CN2CCN3C(=O)N(c4ccc(CCC(=O)O)cc4F)C[C@@H]3C2)N=C(c2nccs2)N[C@H]1c1ccc(F)cc1Cl.CS(=O)(=O)O", "Purity (%)": "99.40%"}
{"COMPOUND": "COC(=O)C1=C(CN2CCN3C(=O)N(c4ccc(CCC(=O)O)cc4F)C[C@@H]3C2)N=C(c2nccs2)N[C@H]1c1ccc(F)cc1Cl.O=P(O)(O)O [Phosphate crystal form A of the compound having Formula (Ia)]", "Purity (%)": "99.06%"}

Continue with the compound presented below.
Can you share its Purity (%)? I mean this compound: COC(=O)C1=C(CN2CCN3C(=O)N(c4ccc(CCC(=O)O)cc4F)C[C@@H]3C2)NC(c2nccs2)=N[C@H]1c1ccc(F)cc1Cl.N=C(N)NCCC[C@H](N)C(=O)O 98.72%
